# system-name: Epidermal growth factor receptor (Homo sapiens)
# measurement-description: EGFR binders on small-molecule microarrays, primary screen, biochemical, small-molecule microarray, 635 nm fluorescence (AID 1104);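 also: score merges 667 nm emission intensity with spot signal to noise over triplicate slides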
# assay-conditions: EGFR binding, higher = more signal
observation-type: composite z-score
I'd appreciate a reply containing only the number, no unit.

>  <compound>
CCOC(=O)[C@H](Cc1ccccc1)NC(=O)CCC1CC(OC(=O)NCCc2ccc(F)cc2)CC2(CCCC(COC(=O)NCCc3ccccc3OC)O2)O1 (some centres not stated)

>  <composite z-score>
0.42

$$$$
>  <compound>
CO[C@H]1COC(=O)CC=C[C@H](C)[C@@H](OC)COC(=O)[C@@H](C)NC(=O)CC=C[C@@H]1C

>  <composite z-score>
1.27

$$$$
>  <compound>
CCc1cc2c(nc1CC)CCN(CCC(C)=NO[C@@H](C)c1cn([C@H](CO)Cc3ccccc3)nn1)C2

>  <composite z-score>
0.253

$$$$
>  <compound>
O=C1[C@H]2[C@H]3[C@H](O)[C@H](O)CC(=NOCc4ccccc4)[C@@H]3CC[C@H]2C(=O)N1Cc1ccc2c(c1)OCO2

>  <composite z-score>
0.317

$$$$
>  <compound>
CC1O[C@H]2C3=C(C(=O)[C@@H]4O[C@@H]4[C@H]3O)[C@@H]1C1[C@@H](C)OC=C3[C@H](O)C4O[C@@H]4C(=NOCc4ccccc4)[C@]312 (some centres not stated)

>  <composite z-score>
0.191

$$$$
>  <compound>
COc1cccc([C@H]2Oc3ccc(OC)cc3C(=NOC[C@@H](O)COCc3ccco3)[C@@H]2O)c1

>  <composite z-score>
-1.44

$$$$
>  <compound>
Cc1cc2c(nc1C)CCCCN2CC(C)ON=C1[C@H]2CCn3c(=O)n(-c4ccccc4)c(=O)n3[C@H]2[C@H](O)[C@@H]2O[C@H]12 (some centres not stated)

>  <composite z-score>
0.302

$$$$
>  <compound>
COC(=O)CC=C[C@@H](C)[C@@H](C=NO[C@H](C)c1cn([C@H](CO)Cc2ccccc2)nn1)OC

>  <composite z-score>
0.952

$$$$
>  <compound>
CC(CCN1CCCc2nc(C)c(C)cc21)=NOC(C)CN1CCCCc2nc(C)c(C)cc21 (configuration not stated)

>  <composite z-score>
1.2

$$$$
>  <compound>
C=CC[C@@H]1C=C[C@H](ON=C(C)CCC(=O)OC[C@H]2O[C@H](C#Cc3ccccc3)C=C[C@@H]2Oc2ccc(C)cc2)[C@@H](CO)O1

>  <composite z-score>
0.298

$$$$

stdin: // returns reported composite z-score for input CCOC(=O)[C@H](CC(C)C)NC(=O)CCC1CC(OC(=O)NCCc2ccc(F)cc2)CC2(CCCC(COC(=O)NCCc3ccc(Cl)cc3)O2)O1 (some centres not stated)
stdout: 0.517

stdin: # iterate: "CC(C)(C)N1C(=O)[C@H]2[C@H]3[C@H](O)[C@H](O)CC(=NO[C@@H]4O[C@H](CO)[C@@H](O)[C@H](O)[C@H]4O)[C@H]3CC[C@H]2C1=O"
stdout: 0.408

----------
# measurement-description: binders of probe aFST on microarray, primary screen, stem cell growth factor project, biochemical, small-molecule microarray, fluorescence 635/667 (AID 1086);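 also: score merges 667 nm fluorescence with signal-to-noise of each printed compound spot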
# assay-conditions: higher = more signal
The compounds listed here are annotated with their composite z-score.
Answer using only a numeral; do not append any unit.

>  <compound>
COc1cccc([C@H]2Oc3ccc(OC)cc3C(=NOC[C@@H](O)[C@H]3O[C@@H]4OC(C)(C)O[C@@H]4[C@H]3O)[C@@H]2O)c1

>  <test-result>
0.149

$$$$
>  <compound>
CCCNC(=O)OC[C@H]1O[C@H](CCON=C(C)C)C=C[C@@H]1Oc1ccc(OC)cc1

>  <test-result>
0.139

$$$$
>  <compound>
C=Cc1ccc([C@H]2N[C@H](C(=O)O)CC[C@@H]2C)cc1

>  <test-result>
-0.0301

$$$$
>  <compound>
CC=CC1=C(CO)C(=O)[C@@H]2O[C@@H]2C1=O

>  <test-result>
-0.212

$$$$

stdin: I am curious: what composite z-score value has been reported for "CO[C@@H]1COC(=O)CC=C[C@@H](C)[C@@H]2C=C[C@H](O)[C@@H](COC(=O)CC=C[C@H]1C)O2" ?
stdout: -0.245

stdin: Same lookup for "Cc1ccc(S(=O)(=O)n2c3ccccc3c3nnc(C(=O)c4ccccc4)nc32)cc1" , please.
stdout: 0.141

stdin: How about this compound: COC(=O)[C@H](C)NC(=O)CCC1CC(OC(=O)NCc2cccc3ccccc23)CC2(CCCC(COC(=O)NCC(c3ccccc3)c3ccccc3)O2)O1 (stereo not given in full)
stdout: 0.157

stdin: Now this one: "CCCNC(=O)OC[C@H]1O[C@H](CCON=Cc2ccc(C(=O)N3[C@H](c4ccc(C)cc4)[C@@H](C)CC[C@H]3C(=O)OC)cc2)C=C[C@@H]1Oc1ccc(OC)cc1"
stdout: 0.598

stdin: Try this compound next: "CC(=O)OC[C@H]1O[C@H](CC=NO[C@H](C)c2cn([C@H](CO)Cc3ccccc3)nn2)C=C[C@@H]1OC(C)=O"
stdout: 0.246

stdin: Another compound to look at: "O=C1C2=CC[C@H]3C(=O)N(c4cccc(Oc5ccccc5)c4)C(=O)[C@H]3[C@H]2[C@H](O)[C@@H]2O[C@H]12"
stdout: 0.373

stdin: Same question for "COc1ccc(O[C@@H]2[C@H](O)CO[C@@H]2C=Cc2ccccc2)cc1" please.
stdout: 0.0116

stdin: And the next one, CCOC(=O)[C@H](CC(C)C)NC(=O)CCC1CC(OC(=O)NCCc2ccc(F)cc2)CC2(CCCC(COC(=O)NCC(c3ccccc3)c3ccccc3)O2)O1 (stereo not given in full) ?
stdout: 0.0026

stdin: Please answer likewise for CCOC(=O)[C@H](Cc1ccccc1)NC(=O)CCC1CC(OC(=O)NCc2ccc3c(c2)OCO3)CC2(CCCC(COC(=O)NCCC(C)C)O2)O1 (stereo not given in full)
stdout: 0.169

stdin: Do the same for CCOC(=O)[C@H](Cc1ccccc1)NC(=O)CCC1CC(OC(=O)NCc2ccc3c(c2)OCO3)CC2(CCCC(COC(=O)NCCc3ccccc3OC)O2)O1 (stereo not given in full) please
stdout: 0.569

----------
# measurement-description: binders of probe aFGF10 on microarray, primary screen, stem cell growth factor project, biochemical, small-molecule microarray, fluorescence 635/667 (AID 1071);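 also: score merges 667 nm spot intensity and signal to noise from triplicate slides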
# assay-conditions: higher = more signal
observation-type: composite z-score
Respond with the number and no other words.

Example entries begin here.
>  <input-smiles>
CC(CCN1CCCCc2nc(C)c(C)cc21)=NOC[C@@H](O)COCc1ccco1

>  <test-result>
0.0106

$$$$
>  <input-smiles>
O=C1C2=CC[C@H]3C(=O)N(c4cccc(Oc5ccccc5)c4)C(=O)[C@H]3[C@H]2[C@H](O)[C@@H]2O[C@H]12

>  <test-result>
0.258

$$$$
>  <input-smiles>
COC(=O)CC=C[C@H](C)[C@@H](OCc1cccc(Br)c1)[C@@H](C)[C@H](OC)C1CCCCC1

>  <test-result>
0.106

$$$$
>  <input-smiles>
C=Cc1ccc([C@H]2N[C@H](C(=O)O)CC[C@@H]2C)cc1

>  <test-result>
0.145

$$$$
>  <input-smiles>
CC(C)(C)N1C(=O)[C@H]2[C@H]3[C@H](O)C=CC(=O)[C@@H]3CC[C@H]2C1=O

>  <test-result>
0.412

$$$$
>  <input-smiles>
COc1ccc(COC(=O)NN=C2C[C@@H](O)[C@@H](O)[C@@H]3[C@@H]4C(=O)N(c5cccc(Oc6ccccc6)c5)C(=O)[C@@H]4CC[C@@H]23)cc1

>  <test-result>
-0.135

$$$$
>  <input-smiles>
CON=C1[C@H]2CCn3c(=O)n(-c4ccccc4)c(=O)n3[C@H]2[C@H](O)[C@@H]2O[C@H]12

>  <test-result>
0.383

$$$$

Now for a further molecule.
stdin: Which value of composite z-score has been reported for "CC(C)(C)N1C(=O)[C@H]2[C@H]3[C@H](O)[C@H](O)CC(=NO[C@@H]4O[C@H](CO)[C@@H](O)[C@H](O)[C@H]4O)[C@H]3CC[C@H]2C1=O" in the records?
stdout: 0.569

----------
# measurement-description: modulators of S6 phosphorylation in cells, primary screen, cell-based, A549, cytoblot, luminescence, serum-stimulated (AID 1158);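 also: serum-stimulated A549 lung adenocarcinoma cells; signal is phosphorylated S6 detected by cytoblot immunostaining with HRP secondary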
# assay-conditions: A549 phospho-S6 cytoblot, 5 h, higher = more signal
Items are presented alongside their recorded z-score.
The answer should be a number; do not append a unit.

>  <compound>
CO[C@@H]1COC(=O)CC=C[C@@H](C)[C@H](OC)COC(=O)[C@@H](C)COC(=O)CC=C[C@H]1C

>  <z-score>
-0.0303

$$$$
>  <compound>
COC(=O)CC=C[C@@H](C)[C@@H]1C=C[C@H](O)[C@@H](CO)O1

>  <z-score>
0.338

$$$$
>  <compound>
CC(CCN1CCCc2nc(C)c(C)cc21)=NOC(C)CN1CCCCc2nc(C)c(C)cc21 (centres undefined)

>  <z-score>
-0.775

$$$$

stdin: What does the record list as z-score for "COC(=O)[C@@H]1CC[C@H](C)[C@@H](c2ccc(C)cc2)N1C(=O)c1ccc(C=NOC[C@@H](C)[C@H](OCc2ccccc2)C(C)C)cc1" ?
stdout: 2.57
